Measurement description: basal RPMI8226 mitochondrial membrane potential changes, profiling panel, cell-based, JC-1 fluorescence, 24 h, 100 nL compound (AID 1169); note: test concentration not given here
Test parameters: RPMI8226 myeloma, JC-1 mitochondrial potential fluorescence, higher = more signal
Entries and their z-score values follow.

# z-score (compound: CN(C)CCCN1C(=O)[C@@]2(c3ccc([N+](=O)[O-])cc3)CC(=O)N(CC34CC5CC(CC(C5)C3)C4)[C@@H]2c2ccc(CO)cc21 ) is -0.0069

# z-score (compound: C=C(CCCC)/C(=C/C[C@@H](OC(=O)c1ccncc1)c1cccc(OCCO)c1)c1cnc2ccccc2c1 ) is -0.497

# z-score (compound: C=C(/C(=C/C[C@@H](OC(=O)c1ccncc1)c1ccccc1OCCO)c1cc(C(=O)OC)ccc1OC)C(C)C ) is 0.00511

# z-score (compound: COC(=O)[C@@]1(Cc2ccc(F)cc2)[C@H]2c3cc(C(=O)N4CCCC4)n(CCF)c3C[C@H]2CN1C(=O)c1ccccc1 ) is -0.0725

# z-score (compound: CCCC=C(CCC)[C@@H](NP(=O)(c1ccccc1)c1ccccc1)c1ccc(C(F)(F)F)cc1 ) is 0.72

# z-score (compound: O=C1NCC(=O)N2[C@@H]1C[C@@H](C(=O)O)[C@H]2c1ccc(O)cc1 ) is 0.233

# z-score (compound: C=CC[C@@H](OC(=O)Nc1ccc(OC)cc1)c1ccc(OCCO)cc1 ) is -0.052

# z-score (compound: CC(C)CCC[C@@H](C)[C@H]1CC[C@@]2(C)C3=C(CC[C@]12C)[C@@]1(C)CC[C@H](OC(=O)c2ccc(Br)cc2)C(C)(C)C1CC3 (stereo partly drawn) ) is 0.717

---

Measurement description: binders of probe aFST on microarray, primary screen, stem cell growth factor project, biochemical, small-molecule microarray, fluorescence 635/667 (AID 1086);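 note: score merges 667 nm fluorescence with signal-to-noise of each printed compound spot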
Test parameters: higher = more signal
# binarize composite z-score: threshold 0.5 inclusive, high side criterion met, low side criterion not met

Reported composite z-score reaches at least 0.5 for COc1c(C)cc(-c2cc3c(c(-c4ccccc4)n2)[Si](C(C)C)(C(C)C)OC3)cc1C ?
criterion not met

Reported composite z-score reaches at least 0.5 for O=C1NC(=O)C2C1C=CC(C(O)c1ccc(Br)cc1)N2Nc1ccccn1 (stereo not drawn) ?
criterion not met

Reported composite z-score reaches at least 0.5 for COCCOC(=O)N1C(=O)[C@@]2(c3cc(C#CC4=CCCCC4)ccc31)[C@H](c1ccc(O)cc1)N1[C@H](c3ccccc3)[C@H](c3ccccc3)OC(=O)[C@H]1[C@@H]2C(=O)Nc1nc2ccccc2s1 ?
criterion met

Reported composite z-score reaches at least 0.5 for [N-]=[N+]=NCc1ccccc1C[C@@]1(C(=O)N2CCCCC2)N=C(c2ccc(OCCCO)cc2)O[C@@H]1c1ccccc1N=[N+]=[N-] ?
criterion not met

Reported composite z-score reaches at least 0.5 for [N-]=[N+]=NCc1ccccc1[C@H]1OC(c2ccc(OCCCO)cc2)=N[C@@]1(CCS(=O)(=O)c1ccccc1)C(N)=O ?
criterion met

***
Reported composite z-score reaches at least 0.5 for COC(=O)[C@@]1(Cc2ccc(OC)cc2)[C@H]2c3cc(C(=O)N(C)C)n(Cc4nc5ccccc5[nH]4)c3C[C@H]2CN1C(=O)c1ccccc1 ?
criterion met

Reported composite z-score reaches at least 0.5 for COCCOC(=O)N1C(=O)[C@@]2(c3cc(C#Cc4ccc(OC)cc4)ccc31)[C@H](C(=O)N1CCCCCCC1)[C@H]1C(=O)O[C@H](c3ccccc3)[C@H](c3ccccc3)N1[C@@H]2c1ccc(O)cc1 ?
criterion met
